assay-explanation: NCI Yeast Anticancer Drug Screen. Data for the rad50 strain (AID 155);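 also: 0% = growth of vehicle-only cultures of the same strain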
condition-info: S. cerevisiae rad50 strain growth inhibition; at 50.0 µM; hits give high values
The panel holds about 79,000 compounds, 15% with a hit somewhere; the sample as a whole holds those more often.
readout-label: growth inhibition (%)
Value expressed in %; do not type the unit.

Query: // query growth inhibition value for entry S=C1N(c2ccccc2)CCN1c1ccccc1
Result: -15.2

Query: And the next one, Cc1ccc2c(c1)nc(N)n[n+]2[O-] ?
Result: 2.85

Query: And the next one, COc1cc(O)c2c(=O)c(OC)c(-c3ccc4c(c3)OCO4)oc2c1 ?
Result: 4.6

Query: And the next one, Cc1cccc(C)c1NC(=O)OC(C)C ?
Result: 4.8

Query: And the next one, CC(C)CC1CC(=O)C(=O)C(CC(C)C)C1 (stereo not drawn) ?
Result: 8.25

Query: And the next one, C#CC(C)(C)OC(=O)Nc1ccc(Cl)cc1 ?
Result: 27.4

Query: And the next one, CCCCCCCCCCCCCCCCSc1ccc(S(=O)(=O)N(C)C)cc1N ?
Result: -16.3

Query: And the next one, CN(C)C(=S)/N=c1\ssc(=S)n1Cc1cccs1 ?
Result: -11.1

Query: And the next one, CCOC(=O)c1cnc2[nH]ccn2c1=O ?
Result: -26.9

Query: And the next one, CC1C2(C)OC(=N)C(C#N)(C(c3ccccc3)O2)C1(C#N)C#N (stereo not drawn) ?
Result: 8.7

Query: And the next one, COC(=O)C(O)C(O)C(O)C(O)C(=O)OC (stereo not drawn) ?
Result: 2.2

Query: And the next one, Cc1ccc(S(=O)(=O)N2CCOCC2)cc1 ?
Result: -2.9

Query: And the next one, O=C(O)c1cc(=O)c2ccccc2[nH]1 ?
Result: 4.45

* * *

assay-explanation: NCI Yeast Anticancer Drug Screen. Data for the mec2-1 strain (AID 157)
condition-info: S. cerevisiae mec2-1 strain, at 50.0 µM, hits give high values
Compounds without any hit were thinned out: in the full panel of roughly 79,000, 15% have a hit.
readout-label: growth inhibition (%)
Value expressed in %; do not type the unit.

Query: // query growth inhibition value for entry CC(C)(C)c1ccc(P(=O)(O)C(C)(C)C)cc1
Result: 5.9

Query: And the next one, CCOC(=O)c1c(OC)c(-c2ccccc2)c(=O)n2c3ccccc3n(C)c12 ?
Result: 9.05

Query: And the next one, Nc1nc2[nH]c(=O)cnc2c(=O)[nH]1 ?
Result: -32.3

Query: And the next one, COC(=O)c1cc(C(=O)OC)c(CC(=O)C(=O)Nc2c(C(C)C)cccc2C(C)C)nc1CC(=O)C(=O)Nc1c(C(C)C)cccc1C(C)C ?
Result: -22.9

Query: And the next one, OC1CC2CCCCC2CC1c1ccccc1 (configuration not stated) ?
Result: 3.1

Query: And the next one, C=C1C(=O)O[C@H]2C[C@@H]1C(=O)CC(C)CCCC(C)=CCC[C@@]2(C)O (some centres not stated) ?
Result: 7.65

Query: And the next one, O=C(Nc1c(Cl)cccc1Cl)Oc1cccnc1 ?
Result: -19.8

Query: And the next one, Cc1nc2c(ccc3cc4ccccc4cc32)cc1N(CCO)CCO ?
Result: -0.75

Query: And the next one, ClC1CC2CCC1C2Br (configuration not stated) (tested in a mixture with another compound) ?
Result: -14.2

Query: And the next one, COc1ccc2c(c1)CN(C)c1ccc(OC)cc1CN2C ?
Result: -18.6

Query: And the next one, ClC(Cl)(Cl)CC(Br)c1ccccc1 (configuration not stated) ?
Result: -8.8

Query: And the next one, C[N+](C)(C)CCCSc1nc2ccccc2[nH]1 ?
Result: -7.15

Query: And the next one, COc1ccc(C2=CN(S(=O)(=O)c3ccc(C)cc3)CCc3ccccc32)cc1 ?
Result: -10.9

Query: And the next one, O=C(O)c1ccccc1C(=O)c1ccccn1 ?
Result: -31.8

Query: And the next one, COCC1OC(OC2(COC)OC(COC)C(OC)C2OC)C(OC)C(OC)C1OC (configuration not stated) ?
Result: -4.15

Query: And the next one, CC(=O)OC1CC(=O)OC(C)(C)C2CC(=O)C3(C)C(CCC4(C)C(c5ccoc5)OC(=O)C5OC543)C12C (configuration not stated) ?
Result: -18.3

Query: And the next one, O=c1[nH]c(=O)n(C2CC(O)C(CO)O2)cc1NN=NCCCc1ccccc1 (configuration not stated) ?
Result: -12.4

Query: And the next one, CCCCCCC(C(=O)OCC)(C(=O)OCC)c1ccccc1 ?
Result: -16.1

Query: And the next one, O=[N+]([O-])c1ccc(OC(=S)Oc2ccc([N+](=O)[O-])cc2)cc1 ?
Result: -16.7

Query: And the next one, Cc1nnc(N=Nc2c(O)[nH]c3ccccc23)[nH]c1=O ?
Result: 1.2

Query: And the next one, COc1ccc(OCC(C)(C)O)cc1 ?
Result: -0.4

Query: And the next one, COc1ccc(-c2cc(-c3ccc(C)cc3)n(C3OC(COC(C)=O)C(OC(C)=O)C(OC(C)=O)C3OC(C)=O)c(=S)c2C#N)cc1 (configuration not stated) ?
Result: -11.2
